PROTOCOL TEXT: Validation of Assay for Modulators of Lamin A Splicing (AID 1459);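 further: cells exposed to compound for two days before reading; ratio rise marks activators and ratio drop marks inhibitors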
SETUP CONDITIONS: Lamin A splicing dual RFP/GFP fluorescence reporter; series mostly up to 9.22 µM
Description: Hutchinson-Gilford Progeria Syndrome (HGPS) is a pediatric premature aging disease caused by a spontaneous mutation in the lamin A/C (LMNA) gene. […] Bowen, W. P.; Wylie, P. G. Application of Laser-Scanning Fluorescence Microplate Cytometry in High Content Screening. […] 5 uL of HeLa cells were plated in Aurora LoBase black clear bottom (cyclic-olefin polymer) 1536-well plates at a final density of 600 cells/well. […] Following incubation the plates were read on the Acumen Explorer using the 488 nm laser. […]
Results filed as inconclusive are left out. Active and inactive are the calls of the source. The call rests on the fitted dose curve; in most records, active means well fitted curve in the direction sought with a large enough effect in the signal ratio; inconclusive means small, poorly fitted or top-dose-only effect, or effect the other way, or a change in a side signal; inactive means no such curve, though single readings can be large or run the other way; the % refers to the signal ratio.
READOUT TYPE: outcome

Use these answered entries as a reference point.
COMPOUND: CC1=C(/C=C/C(C)=C/C=C/C(C)=C\C(=O)O)C(C)(C)CCC1
READOUT TYPE: outcome
ENDPOINT RESULT: inactive

COMPOUND: N[C@@H](Cc1ccc(O)c(I)c1)C(=O)O
READOUT TYPE: outcome
ENDPOINT RESULT: inactive

COMPOUND: O=c1cc(O)cc(/C=C/c2ccc(O)c(O)c2)o1
READOUT TYPE: outcome
ENDPOINT RESULT: inactive

COMPOUND: O=C(O)C1CCNCC1
READOUT TYPE: outcome
ENDPOINT RESULT: inactive

COMPOUND: NC1(C(=O)O)CCCCC1
READOUT TYPE: outcome
ENDPOINT RESULT: inactive

Please report outcome for every entry that follows.
1. CCCc1c(-c2ccc(O)cc2)nn(-c2ccc(O)cc2)c1-c1ccc(O)cc1
2. NC(N)=NC(N)=Nc1ccccc1
3. CC1=C(C(=O)O)N2C(=O)[C@@H](NC(=O)C(N)C3=CCC=CC3)[C@H]2SC1 (some centres not stated)
4. COC(=O)[C@H](NC(=O)c1cc(-c2ccccc2)nc2ccccc12)c1ccccc1
5. NC(N)=[N+]1CCc2ccccc2C1
6. Nc1ccc(N2C(=O)c3ccccc3C2=O)c(Cl)c1
7. O=S(=O)(c1cccc2c(Cl)cccc12)N1CCCNCC1

Reply:
1: inactive; 2: inactive; 3: inactive; 4: inactive; 5: inactive; 6: inactive; 7: inactive

FYI, the data here is from PubChem BioAssay (NCATS).
